# TARGET_SYSTEM: Free fatty acid receptor 4 (Homo sapiens) (UniProt Q5NUL3)
# Sequence (Q5NUL3 whole entry): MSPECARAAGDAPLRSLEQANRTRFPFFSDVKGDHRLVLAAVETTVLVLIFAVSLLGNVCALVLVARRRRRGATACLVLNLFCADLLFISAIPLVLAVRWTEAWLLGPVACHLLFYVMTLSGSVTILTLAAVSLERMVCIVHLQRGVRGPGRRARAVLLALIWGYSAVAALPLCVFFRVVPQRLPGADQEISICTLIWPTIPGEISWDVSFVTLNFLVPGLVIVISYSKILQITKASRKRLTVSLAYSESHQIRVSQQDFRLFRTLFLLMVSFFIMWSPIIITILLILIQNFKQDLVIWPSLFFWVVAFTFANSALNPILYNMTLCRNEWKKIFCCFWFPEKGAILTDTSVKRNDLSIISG
# ASSAY_SUMMARY: Agonist activity at N-terminal FLAG tagged human FFAR4 transfected in African green monkey COS-7 cells assessed as accumulation of inositol phosphate at 10 uM incubated for 90 mins by TopCount NXT counter based analysis relative to control
# Format: cell-based
# CONDITION: filed as agonist
In this section, each of the molecules is paired with its reported Emax.
# output: bare number, implied unit %

MOL_SMILES: Cc1cc(OCc2nc(N)nc(NCCc3cccc(Cl)c3)n2)cc(N2CCCC2=O)c1
Emax, %: 43

MOL_SMILES: Cc1cc(OCc2nc(N)nc(NCCc3cc(C)ccc3F)n2)cc(N2CCCC2=O)c1
Emax, %: 40

MOL_SMILES: Cc1ccc(Nc2nc(N)nc(COc3cccc(N4CCCCC4=O)c3)n2)cc1Cl
Emax, %: 66

MOL_SMILES: Cc1ccc(Nc2nc(N)nc(COc3cc(N4CCCC4=O)ccc3C(F)(F)F)n2)cc1Cl
Emax, %: 41

MOL_SMILES: Cc1cc(Nc2nc(N)nc(COc3ccc4c(C)cc(=O)oc4c3)n2)ccc1Cl
Emax, %: 48

MOL_SMILES: Cc1cc(OCc2nc(N)nc(NCCc3cc(Cl)cc(Cl)c3)n2)cc(N2CCCC2=O)c1
Emax, %: 49

Q: So what's the measured Emax for this one? Cc1cc(OCc2nc(N)nc(NCCc3c(C)cccc3C)n2)cc(N2CCCC2=O)c1
Result: 44

Q: So what's the measured Emax for this one? Cc1c(Cl)cc(Nc2nc(N)nc(COc3ccc4c(C)cc(=O)oc4c3)n2)cc1Cl
Result: 68

Q: So what's the measured Emax for this one? Cc1cc(OCc2nc(N)nc(NCCc3cccc(S(F)(F)(F)(F)F)c3)n2)cc(N2CCCC2=O)c1
Result: 95

Q: So what's the measured Emax for this one? Cc1cc(OCc2nc(N)nc(NCCc3c(F)cccc3F)n2)cc(N2CCCC2=O)c1
Result: 46

Q: So what's the measured Emax for this one? Cc1ccc(Nc2nc(N)nc(COc3ccc4ccc(=O)oc4c3)n2)cc1
Result: 49

* * *

In this section, each of the molecules is paired with its reported EC50.
# TARGET_SYSTEM: Free fatty acid receptor 1 (Homo sapiens, UniProt O14842)
# Sequence (O14842 whole entry): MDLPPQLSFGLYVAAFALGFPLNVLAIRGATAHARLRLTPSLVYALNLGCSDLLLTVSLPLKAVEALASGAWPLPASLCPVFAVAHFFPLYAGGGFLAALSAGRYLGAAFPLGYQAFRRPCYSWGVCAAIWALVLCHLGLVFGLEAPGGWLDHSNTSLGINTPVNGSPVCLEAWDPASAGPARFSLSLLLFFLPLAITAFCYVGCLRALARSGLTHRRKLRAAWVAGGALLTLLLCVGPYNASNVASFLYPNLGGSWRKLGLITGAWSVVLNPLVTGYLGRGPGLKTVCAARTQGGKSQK
# ASSAY_SUMMARY: Agonist activity at N-terminal FLAG tagged human FFAR1 transfected in African green monkey COS-7 cells assessed as accumulation of inositol phosphate incubated for 90 mins by TopCount NXT counter based analysis
# output: bare number, implied unit nM

Reference set (5 entries):
MOLECULE: CCCc1cc(=O)oc2cc(OCc3nc(N)nc(Nc4ccc(C)cc4)n3)ccc12
EC50 (nM): 2900
//
MOLECULE: Cc1cc(OCc2nc(N)nc(Nc3ccc(C)c(Cl)c3)n2)cc(N2CCCC2=O)c1
EC50 (nM): 20
//
MOLECULE: Cc1cc(OCc2nc(N)nc(NCCc3cccc(C(F)(F)F)c3)n2)cc(N2CCCC2=O)c1
EC50 (nM): 12
//
MOLECULE: Cc1cc(OCc2nc(N)nc(NCCc3cccc(S(F)(F)(F)(F)F)c3)n2)cc(N2CCCC2=O)c1
EC50 (nM): 32
//
MOLECULE: Cc1cc(=O)oc2cc(OCc3nc(N)nc(Nc4ccc(Cl)c(Cl)c4)n3)ccc12
EC50 (nM): 780

Q: So what's the measured EC50 for this one? Cc1ccc(Nc2nc(N)nc(COc3cc(N4CCCC4=O)ccc3C(F)(F)F)n2)cc1Cl
Result: 20100

Q: So what's the measured EC50 for this one? Cc1cc(=O)oc2cc(OCc3nc(N)nc(Nc4ccc(F)cc4)n3)ccc12
Result: 18300
